Reported values of MIC for individual entries
System: Streptococcus pyogenes
Assay protocol: In vitro antibacterial activity against the gram-positive bacteria, erythromycin resistant Streptococcus pyogenes
Type: functional

Molecule: CC(=O)OCC1=C(C(=O)O)N2C(=O)[C@@H](NC(=O)CN(OCc3ccccc3Cl)C(=O)c3ccccc3)C2SC1 (some centres not stated)
MIC, µg/mL: 0.5

Molecule: CC(=O)OCC1=C(C(=O)O)N2C(=O)[C@@H](NC(=O)CN(OCc3ccccc3)C(=O)NCc3ccccc3)C2SC1 (some centres not stated)
MIC, µg/mL: 0.25

Molecule: CC1(C)S[C@@H]2[C@H](NC(=O)[C@H](N)c3ccc(O)cc3)C(=O)N2[C@H]1C(=O)O.O=C(O)[C@H]1/C(=C/CO)O[C@@H]2CC(=O)N21
MIC, µg/mL: 0.06

Molecule: CC(=O)OCC1=C(C(=O)O)N2C(=O)[C@@H](NC(=O)CN(OCc3cccc(Cl)c3)C(=O)NCc3ccccc3)C2SC1 (some centres not stated)
MIC, µg/mL: 0.25

Molecule: CC(=O)OCC1=C(C(=O)O)N2C(=O)[C@@H](NC(=O)CN(OCc3cccc(Cl)c3)C(=O)Nc3ccccc3)C2SC1 (some centres not stated)
MIC, µg/mL: 0.12

Molecule: CO/N=C(\C(=O)N[C@@H]1C(=O)N2C(C(=O)O)=C(COC(N)=O)CS[C@H]12)c1ccco1
MIC, µg/mL: 0.06

Molecule: CC(=O)OCC1=C(C(=O)O)N2C(=O)[C@@H](NC(=O)CN(OCc3ccc(Cl)cc3)C(=O)NCc3ccccc3)C2SC1 (some centres not stated)
MIC, µg/mL: 0.12

====

Tested on: Staphylococcus aureus
Assay protocol: In vitro antibacterial activity against the gram-positive bacteria, penicillin sensitive Staphylococcus aureus (3849)
Assay type: functional
Experimental endpoint: MIC (µg/mL)

Compound: CC(=O)OCC1=C(C(=O)O)N2C(=O)[C@@H](NC(=O)CN(OCc3cccc(Cl)c3)C(=O)Nc3ccccc3)C2SC1 (stereo not given in full)
Experimental endpoint: MIC
Reading qualifier: =
Readout number: 0.5
--
Compound: CC(=O)OCC1=C(C(=O)O)N2C(=O)[C@@H](NC(=O)CN(OCc3ccccc3)C(=O)c3ccccc3)C2SC1 (stereo not given in full)
Experimental endpoint: MIC
Reading qualifier: =
Readout number: 0.5
--
Compound: CC(=O)OCC1=C(C(=O)O)N2C(=O)[C@@H](NC(=O)CN(OCc3ccccc3Cl)C(=O)c3ccccc3)C2SC1 (stereo not given in full)
Experimental endpoint: MIC
Reading qualifier: =
Readout number: 0.5
--
Compound: CC(=O)OCC1=C(C(=O)O)N2C(=O)[C@@H](NC(=O)CN(OCc3ccccc3)C(=O)NCc3ccccc3)C2SC1 (stereo not given in full)
Experimental endpoint: MIC
Reading qualifier: =
Readout number: 1
--
Compound: CO/N=C(\C(=O)N[C@@H]1C(=O)N2C(C(=O)O)=C(CSc3nc(=O)c(O)nn3C)CS[C@H]12)c1csc(N)n1
Experimental endpoint: MIC
Reading qualifier: =
Readout number: 2
--
Compound: CC(=O)OCC1=C(C(=O)O)N2C(=O)[C@@H](NC(=O)CN(OCc3ccc(Cl)cc3)C(=O)Nc3ccccc3)C2SC1 (stereo not given in full)
Experimental endpoint: MIC
Reading qualifier: =
Readout number: 0.5
--
Compound: CC(=O)OCC1=C(C(=O)O)N2C(=O)[C@@H](NC(=O)CN(OCc3ccc(Cl)cc3)C(=O)NCc3ccccc3)C2SC1 (stereo not given in full)
Experimental endpoint: MIC
Reading qualifier: =
Readout number: 0.5
--
Compound: CC1(C)S[C@@H]2[C@H](NC(=O)Cc3ccccc3)C(=O)N2[C@H]1C(=O)O
Experimental endpoint: MIC
Reading qualifier: <
Readout number: 0.5
--
Compound: CO/N=C(\C(=O)N[C@@H]1C(=O)N2C(C(=O)O)=C(COC(N)=O)CS[C@H]12)c1ccco1
Experimental endpoint: MIC
Reading qualifier: =
Readout number: 1
--
Compound: CC(=O)OCC1=C(C(=O)O)N2C(=O)[C@@H](NC(=O)CN(OCc3cccc(Cl)c3)C(=O)c3ccccc3)C2SC1 (stereo not given in full)
Experimental endpoint: MIC
Reading qualifier: =
Readout number: 0.5
--
Compound: CC(=O)OCC1=C(C(=O)O)N2C(=O)[C@@H](NC(=O)CN(OCc3ccccc3Cl)C(=O)NCc3ccccc3)C2SC1 (stereo not given in full)
Experimental endpoint: MIC
Reading qualifier: =
Readout number: 0.5
--
Compound: CC(=O)OCC1=C(C(=O)O)N2C(=O)[C@@H](NC(=O)CN(OCc3ccc(Cl)cc3)C(=O)c3ccccc3)C2SC1 (stereo not given in full)
Experimental endpoint: MIC
Reading qualifier: =
Readout number: 1
--
Compound: N[C@@H](C(=O)N[C@@H]1C(=O)N2C(C(=O)O)=C(Cl)CS[C@H]12)c1ccccc1 [CEFACLOR ANHYDROUS]
Experimental endpoint: MIC
Reading qualifier: =
Readout number: 1
--
Compound: CC(=O)OCC1=C(C(=O)O)N2C(=O)[C@@H](NC(=O)CN(OCc3ccccc3)C(=O)Nc3ccccc3)C2SC1 (stereo not given in full)
Experimental endpoint: MIC
Reading qualifier: =
Readout number: 0.5
--
Compound: CC(=O)OCC1=C(C(=O)O)N2C(=O)[C@@H](NC(=O)CN(OCc3ccccc3Cl)C(=O)Nc3ccccc3)C2SC1 (stereo not given in full)
Experimental endpoint: MIC
Reading qualifier: =
Readout number: 0.5
